- SYSTEM_UNDER_TEST: RPS6KA1 KD2 (human)
- ASSAY_INFO: KINOMEscan competition binding
- APPLIED_CONDITIONS: compound 10.0 µM
# 1 = kinase still bound, per cent of control below 80% (exclusive); 0 = kinase still bound, per cent of control at/above 80%

Here's what some known entries look like.
molecule=C[C@@H](Oc1cc(-n2cnc3ccc(CN4CCN(C)CC4)cc32)sc1C(N)=O)c1ccccc1C(F)(F)F label_value=1
molecule=O=C(NC1CC1)c1cccc(-c2ccc3c(NC(=O)C4CC4)n[nH]c3c2)c1 label_value=1
molecule=O=C1Nc2ccc(I)cc2/C1=C/c1cc(Br)c(O)c(Br)c1 label_value=1
molecule=COc1cc(N2CCN(C)CC2)ccc1Nc1nc(N)c(C(=O)c2c(Cl)cccc2Cl)s1 label_value=1
molecule=Cc1cc([C@@H](C)Nc2ccccc2C(=O)O)c2nc(N3CCOCC3)cc(=O)n2c1 label_value=0
molecule="COc1cc(C(=O)NC2CCN(C)CC2)ccc1Nc1ncc2c(n1)N(C1CCCC1)C(C)CC(=O)N2C (centres undefined)" label_value=1
molecule=OCCCNc1cc(-c2ccnc(Nc3cccc(Cl)c3)n2)ccn1 label_value=0
molecule=C=CC(=O)Nc1cccc(Oc2nc(Nc3ccc(N4CCN(C)CC4)cc3OC)ncc2Cl)c1 label_value=0
molecule=CC[C@@H]1C(=O)N(C)c2cnc(Nc3ccc(C(=O)NC4CCN(C)CC4)cc3OC)nc2N1C1CCCC1 label_value=1
molecule=Cc1ccc(C(=O)Nc2cccc(C(F)(F)F)c2)cc1Nc1cncc(C(N)=O)c1 label_value=0

Please determine if C=CC(=O)Nc1cc(NC(=O)c2ccc(C)c(NC(=O)c3ccno3)c2)cc(C(F)(F)F)c1 is below 80% in terms of kinase still bound, per cent of control.
0

Please determine if CN(C)C/C=C/C(=O)Nc1cccc(Nc2ncc3c(n2)N(C)c2ccccc2C(=O)N3C)c1 is below 80% in terms of kinase still bound, per cent of control.
1

Please determine if CCN1CCN(Cc2ccc(Nc3ncc4c(n3)N(C)c3ccccc3C(=O)N4C)cc2C(F)(F)F)CC1 is below 80% in terms of kinase still bound, per cent of control.
1

Please determine if COc1cc(C(=O)NC2CCN(C)CC2)ccc1Nc1ncc2c(n1)N(C1CCCC1)CCC(=O)N2C(C)C is below 80% in terms of kinase still bound, per cent of control.
0

Please determine if Cc1ccc(NC(=O)c2cccc(C(C)(C)C#N)c2)cc1Nc1ccc2ncn(C)c(=O)c2c1 is below 80% in terms of kinase still bound, per cent of control.
0

Please determine if C=CC(=O)Nc1cccc(Nc2nc(N[C@H]3CC[C@H](N(C)C)CC3)nc3c2ncn3C(C)C)c1 is below 80% in terms of kinase still bound, per cent of control.
1

Please determine if CCC(=O)N1CCN(c2ccc(-n3c(=O)ccc4cnc5ccc(-c6cnc7ccccc7c6)cc5c43)cc2C(F)(F)F)CC1 is below 80% in terms of kinase still bound, per cent of control.
0

---

- SYSTEM_UNDER_TEST: DAPK3 (human) (UniProt O43293)
- Sequence (O43293 whole entry, looked up): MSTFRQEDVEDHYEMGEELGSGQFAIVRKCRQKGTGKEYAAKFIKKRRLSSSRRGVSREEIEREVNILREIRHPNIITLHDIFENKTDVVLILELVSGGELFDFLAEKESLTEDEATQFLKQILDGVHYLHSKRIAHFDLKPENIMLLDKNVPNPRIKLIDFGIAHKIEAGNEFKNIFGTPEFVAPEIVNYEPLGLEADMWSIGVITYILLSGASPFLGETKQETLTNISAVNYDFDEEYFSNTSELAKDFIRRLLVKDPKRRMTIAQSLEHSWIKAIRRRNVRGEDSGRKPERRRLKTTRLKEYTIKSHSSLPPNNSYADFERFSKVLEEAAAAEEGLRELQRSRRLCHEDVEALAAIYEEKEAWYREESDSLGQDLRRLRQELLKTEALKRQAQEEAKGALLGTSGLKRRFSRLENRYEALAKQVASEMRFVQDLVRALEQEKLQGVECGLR
- ASSAY_INFO: KINOMEscan competition binding
- APPLIED_CONDITIONS: compound 10.0 µM
Listing: kinase still bound, per cent of control of selected compounds
Give just the numeric value; % need not be written.

The examples below pair each entry with its known result.
smiles_string=CCC(=O)N1CCN(c2ccc(-n3c(=O)ccc4cnc5ccc(-c6cnc7ccccc7c6)cc5c43)cc2C(F)(F)F)CC1 measured_property="kinase still bound, per cent of control" result=82
smiles_string=O=C(O)c1ccc(Nc2ncc3c(n2)-c2ccc(Cl)cc2C(c2c(F)cccc2F)=NC3)cc1 measured_property="kinase still bound, per cent of control" result=70
smiles_string=COc1cc(C(=O)NC2CCN(C)CC2)ccc1Nc1ncc2c(n1)N(C1CCCC1)CCC(=O)N2C(C)C measured_property="kinase still bound, per cent of control" result=100

Next item in the queue.
Which kinase still bound, per cent of control is reported for this compound? CC[C@@H]1C(=O)N(C)c2cnc(Nc3ccc(C(=O)NC4CCN(C)CC4)cc3OC)nc2N1C1CCCC1
3.6

---

Listing: kinase still bound, per cent of control of selected molecules
- SYSTEM_UNDER_TEST: PIM1 (human) (UniProt P11309)
- Sequence (P11309 whole entry, looked up): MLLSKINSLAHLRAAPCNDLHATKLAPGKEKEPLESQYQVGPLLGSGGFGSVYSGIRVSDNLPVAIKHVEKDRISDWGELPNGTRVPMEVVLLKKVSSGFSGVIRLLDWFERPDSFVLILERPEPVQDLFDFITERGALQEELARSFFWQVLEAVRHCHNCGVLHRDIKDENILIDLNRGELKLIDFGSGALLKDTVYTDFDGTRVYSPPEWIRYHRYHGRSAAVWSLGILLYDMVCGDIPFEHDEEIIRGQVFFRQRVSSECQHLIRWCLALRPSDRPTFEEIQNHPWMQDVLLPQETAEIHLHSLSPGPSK
- ASSAY_INFO: KINOMEscan competition binding
- APPLIED_CONDITIONS: compound 10.0 µM
Give just the numeric value; % need not be written.

The examples below pair each entry with its known result.
smiles_string=COc1cc(N2CCN(C)CC2)ccc1Nc1nc(N)c(C(=O)c2c(Cl)cccc2Cl)s1 result=100
smiles_string=CCOc1cc2ncc(C#N)c(Nc3ccc(OCc4ccccn4)c(Cl)c3)c2cc1NC(=O)/C=C/CN(C)C result=100
smiles_string=O=C(O)c1ccc(Nc2ncc3c(n2)-c2ccc(Cl)cc2C(c2c(F)cccc2F)=NC3)cc1 result=71
smiles_string=N#Cc1c(NC(=O)c2cccc3ccccc23)sc2c1CCCC2 result=100
smiles_string=C=CC(=O)Nc1cccc(Oc2nc(Nc3ccc(N4CCN(C)CC4)cc3OC)ncc2Cl)c1 result=100
smiles_string=O=C(NOC[C@H](O)CO)c1ccc(F)c(F)c1Nc1ccc(I)cc1F result=100

Next item in the queue.
Entry CCC(=O)N1CCN(c2ccc(-n3c(=O)ccc4cnc5ccc(-c6cnc7ccccc7c6)cc5c43)cc2C(F)(F)F)CC1 , system PIM1 (human) (UniProt P11309): what kinase still bound, per cent of control was measured?
80

---

- SYSTEM_UNDER_TEST: AURKB (human) (UniProt Q96GD4)
- Sequence (Q96GD4 whole entry, looked up): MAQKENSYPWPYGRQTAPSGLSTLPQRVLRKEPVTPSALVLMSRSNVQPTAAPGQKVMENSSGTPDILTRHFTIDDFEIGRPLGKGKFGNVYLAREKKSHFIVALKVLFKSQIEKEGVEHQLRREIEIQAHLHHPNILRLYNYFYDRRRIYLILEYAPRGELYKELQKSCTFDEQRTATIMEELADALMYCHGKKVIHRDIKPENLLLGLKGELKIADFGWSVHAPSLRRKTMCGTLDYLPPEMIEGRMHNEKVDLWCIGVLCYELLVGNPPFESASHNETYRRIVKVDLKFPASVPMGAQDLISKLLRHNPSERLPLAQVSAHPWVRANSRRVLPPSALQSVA
- ASSAY_INFO: KINOMEscan competition binding
- APPLIED_CONDITIONS: compound 10.0 µM
MEASURED_PROPERTY: kinase still bound, per cent of control (%)
Give just the numeric value; % need not be written.

The examples below pair each entry with its known result.
smiles_string=CCN1CCN(Cc2ccc(Nc3ncc4c(n3)N(C)c3ccccc3C(=O)N4C)cc2C(F)(F)F)CC1 system_under_test="AURKB (human) (UniProt Q96GD4)" measured_property="kinase still bound, per cent of control" result=0.95
smiles_string=Cc1ccc(NC(=O)c2cccc(C(C)(C)C#N)c2)cc1Nc1ccc2ncn(C)c(=O)c2c1 system_under_test="AURKB (human) (UniProt Q96GD4)" measured_property="kinase still bound, per cent of control" result=100
smiles_string=O=C(NC1CC1)c1cccc(-c2ccc3c(NC(=O)C4CC4)n[nH]c3c2)c1 system_under_test="AURKB (human) (UniProt Q96GD4)" measured_property="kinase still bound, per cent of control" result=30
smiles_string=CC[C@@H]1C(=O)N(C)c2cnc(Nc3ccc(C(=O)NC4CCN(C)CC4)cc3OC)nc2N1C1CCCC1 system_under_test="AURKB (human) (UniProt Q96GD4)" measured_property="kinase still bound, per cent of control" result=100

Which kinase still bound, per cent of control is reported for this compound? COc1cc(C(=O)NC2CCN(C)CC2)ccc1Nc1ncc2c(n1)N(C1CCCC1)CCC(=O)N2C(C)C
100

Which kinase still bound, per cent of control is reported for this compound? Cc1cc([C@@H](C)Nc2ccccc2C(=O)O)c2nc(N3CCOCC3)cc(=O)n2c1
96

Which kinase still bound, per cent of control is reported for this compound? C=CC(=O)Nc1cccc(Oc2nc(Nc3ccc(N4CCN(C)CC4)cc3OC)ncc2Cl)c1
20

Which kinase still bound, per cent of control is reported for this compound? Cc1ccc(C(=O)Nc2cccc(C(F)(F)F)c2)cc1Nc1cncc(C(N)=O)c1
100

Which kinase still bound, per cent of control is reported for this compound? Nc1ccc(-c2ccc3ncc4ccc(=O)n(-c5cccc(C(F)(F)F)c5)c4c3c2)cn1
89

Which kinase still bound, per cent of control is reported for this compound? CCC(=O)N1CCN(c2ccc(-n3c(=O)ccc4cnc5ccc(-c6cnc7ccccc7c6)cc5c43)cc2C(F)(F)F)CC1
82

Which kinase still bound, per cent of control is reported for this compound? COc1cc(N2CCN(C)CC2)ccc1Nc1nc(N)c(C(=O)c2c(Cl)cccc2Cl)s1
93

Which kinase still bound, per cent of control is reported for this compound? O=C(NOC[C@H](O)CO)c1ccc(F)c(F)c1Nc1ccc(I)cc1F
99

Which kinase still bound, per cent of control is reported for this compound? C[C@@H](Oc1cc(-n2cnc3ccc(CN4CCN(C)CC4)cc32)sc1C(N)=O)c1ccccc1C(F)(F)F
80

Which kinase still bound, per cent of control is reported for this compound? C=CC(=O)Nc1cccc(Nc2nc(N[C@H]3CC[C@H](N(C)C)CC3)nc3c2ncn3C(C)C)c1
73

Which kinase still bound, per cent of control is reported for this compound? CN(C)C/C=C/C(=O)Nc1cccc(Nc2ncc3c(n2)N(C)c2ccccc2C(=O)N3C)c1
0.1

Which kinase still bound, per cent of control is reported for this compound? CCOc1cc2ncc(C#N)c(Nc3ccc(OCc4ccccn4)c(Cl)c3)c2cc1NC(=O)/C=C/CN(C)C
75

Which kinase still bound, per cent of control is reported for this compound? Cn1c(=O)n(-c2ccc(C(C)(C)C#N)cc2)c2c3cc(-c4cnc5ccccc5c4)ccc3ncc21
100

Which kinase still bound, per cent of control is reported for this compound? N#Cc1c(NC(=O)c2cccc3ccccc23)sc2c1CCCC2
94

Origin of values: the kinase profiling compilation of Christmann-Franck et al. (2016)
